This section lists log10(Ki) readings for Mu-type opioid receptor (Rattus norvegicus, UniProt P33535).
A difference of one corresponds to tenfold Ki; all values are log10 with Ki in nM.

Examples with answers:
NC(=O)[C@@H]1CCC(=O)NCCC[C@@H](NC(=O)[C@@H](N)Cc2ccc(O)cc2)C(=O)N[C@]2(CCc3ccccc3C2)C(=O)N1 (single isomer, unassigned) :: 0.92
NC(=O)[C@@H]1CCC(=O)NCCC[C@@H](NC(=O)[C@@H](N)Cc2ccc(O)cc2)C(=O)N[C@@H](Cc2ccccc2)C(=O)N1 :: -0.01
C[C@]1(Cc2ccccc2)NC(=O)[C@H](NC(=O)[C@@H](N)Cc2ccc(O)cc2)CCCNC(=O)CC[C@@H](C(N)=O)NC1=O :: 0.86
NC(=O)[C@@H]1CCC(=O)NCCC[C@@H](NC(=O)[C@@H](N)Cc2ccc(O)cc2)C(=O)N[C@@H](Cc2ccc3ccccc3c2)C(=O)N1 :: 0.41
NC(=O)[C@@H]1CCC(=O)NCCC[C@@H](NC(=O)[C@@H](N)Cc2ccc(O)cc2)C(=O)NC2(Cc3ccccc3C2)C(=O)N1 :: 0.62

Could you now consider this next compound?
Item: CN1C(=O)[C@H](NC(=O)[C@@H](N)Cc2ccc(O)cc2)CCCNC(=O)CC[C@@H](C(N)=O)NC(=O)[C@@H]1Cc1ccccc1 | log10(Ki): 3.00

* * *

- TARGET_OR_TEST_SYSTEM: Delta-type opioid receptor (Rattus norvegicus, UniProt P33533)
- Sequence (P33533 whole entry): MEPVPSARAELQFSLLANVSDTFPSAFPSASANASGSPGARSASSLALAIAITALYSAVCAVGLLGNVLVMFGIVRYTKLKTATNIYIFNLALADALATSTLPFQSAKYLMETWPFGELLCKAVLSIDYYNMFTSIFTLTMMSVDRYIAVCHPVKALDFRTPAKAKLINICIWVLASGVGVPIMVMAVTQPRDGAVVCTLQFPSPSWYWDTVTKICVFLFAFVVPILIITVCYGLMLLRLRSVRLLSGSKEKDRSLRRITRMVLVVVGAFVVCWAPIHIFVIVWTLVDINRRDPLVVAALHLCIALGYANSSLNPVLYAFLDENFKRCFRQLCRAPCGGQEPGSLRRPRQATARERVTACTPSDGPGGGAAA
- METHOD_NOTES: Displacement of [3H]DSLET from rat brain membrane opioid receptor delta
OBSERVATION_TYPE: Ki (µM)
One number for each entry, in µM.

Recorded Ki, per entry:
NC(=O)[C@@H]1CCC(=O)NCCC[C@@H](NC(=O)[C@@H](N)Cc2ccc(O)cc2)C(=O)N[C@H](Cc2ccccc2)C(=O)N1 :: 14
CN1C(=O)[C@H](NC(=O)[C@@H](N)Cc2ccc(O)cc2)CCCNC(=O)CC[C@@H](C(N)=O)NC(=O)[C@@H]1Cc1ccccc1 :: 12.8
NC(=O)[C@@H]1CCC(=O)NCCC[C@@H](NC(=O)[C@@H](N)Cc2ccc(O)cc2)C(=O)NC2(Cc3ccccc3C2)C(=O)N1 :: 0.209
NC(=O)[C@@H]1CCC(=O)NCCC[C@@H](NC(=O)[C@@H](N)Cc2ccc(O)cc2)C(=O)N[C@@]2(CCc3ccccc3C2)C(=O)N1 (single isomer, unassigned) :: 3.51
NC(=O)[C@@H]1CCC(=O)NCCC[C@@H](NC(=O)[C@@H](N)Cc2ccc(O)cc2)C(=O)N[C@]2(CCc3ccccc3C2)C(=O)N1 (single isomer, unassigned) :: 1.57

# ---- query compound ----
Kindly note the recorded Ki for NC(=O)[C@@H]1CCC(=O)NCCC[C@@H](NC(=O)[C@@H](N)Cc2ccc(O)cc2)C(=O)N[C@H](CCc2ccccc2)C(=O)N1 , which is 2.6

* * *

For each entry below, report its pKi value.
- TARGET_OR_TEST_SYSTEM: Mu-type opioid receptor (Rattus norvegicus)
- Sequence (P33535 whole entry): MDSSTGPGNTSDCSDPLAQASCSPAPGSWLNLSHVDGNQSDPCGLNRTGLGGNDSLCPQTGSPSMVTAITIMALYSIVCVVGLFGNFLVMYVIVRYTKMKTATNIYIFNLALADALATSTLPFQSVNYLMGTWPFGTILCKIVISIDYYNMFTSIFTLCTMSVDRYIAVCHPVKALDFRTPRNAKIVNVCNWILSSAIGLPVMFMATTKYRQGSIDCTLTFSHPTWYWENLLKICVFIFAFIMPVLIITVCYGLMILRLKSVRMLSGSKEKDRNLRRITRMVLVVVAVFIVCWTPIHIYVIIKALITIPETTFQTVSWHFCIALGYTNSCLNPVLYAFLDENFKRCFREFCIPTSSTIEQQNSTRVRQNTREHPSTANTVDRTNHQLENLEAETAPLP
Answers are plain numbers, as −log10 of the molar value.

Illustrative cases are given below, each with its answer.
NC(=O)[C@@H]1CCC(=O)NCCC[C@@H](NC(=O)[C@@H](N)Cc2ccc(O)cc2)C(=O)N[C@@]2(CCc3ccccc3C2)C(=O)N1 (single isomer, unassigned) :: 7.58
Cc1ccccc1C[C@@H]1NC(=O)[C@H](NC(=O)[C@@H](N)Cc2ccc(O)cc2)CCCNC(=O)CC[C@@H](C(N)=O)NC1=O :: 8.72
NC(=O)[C@@H]1CCC(=O)NCCC[C@@H](NC(=O)[C@@H](N)Cc2ccc(O)cc2)C(=O)N[C@H](CCc2ccccc2)C(=O)N1 :: 6.59

Kindly consider the entry below.
Mu-type opioid receptor (Rattus norvegicus) assay, compound NC(=O)[C@@H]1CCC(=O)NCCC[C@@H](NC(=O)[C@@H](N)Cc2ccc(O)cc2)C(=O)N2Cc3ccccc3C[C@H]2C(=O)N1 , recorded pKi = 5.62
